Experiment: basal RPMI8226 viability, no added stimulus, profiling panel, cell-based, calcein-AM fluorescence, 48 h, PK04 Diversity Set (AID 1166);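 further: cells grown under basal conditions without added stimulus; test concentration not given here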
Settings: RPMI8226 myeloma viability, higher = more signal
# maps each entry to its z-score
Answer with a number only.

Look over these answered cases.
{"Compound": "[N-]=[N+]=Nc1ccccc1C[C@@]1(C(=O)O)N=C(c2ccc(OCCCO)cc2)O[C@@H]1c1ccccc1", "z-score": -1.26}
{"Compound": "C=CCOC(=O)[C@H]1[C@@H]2C(=O)O[C@@H](c3ccccc3)[C@@H](c3ccccc3)N2[C@@H](c2ccc(OCCOC(=O)[C@H]3C[C@H]4C(=O)N[C@@H](CCCC[N+](C)(C)C)C(=O)N4[C@H]3c3cccc(OCCO)c3)cc2)[C@]12C(=O)Nc1ccc(I)cc12", "z-score": 0.532}
{"Compound": "CC(C)N1CC=CC23O[C@@H]4C=CCOC(=O)[C@@H]4[C@H]2C(=O)N(C(C)CO)[C@@H]3C1=O (some centres not stated)", "z-score": -0.186}

// lookup z-score for NC(=O)N1C(=O)C2C(C1=O)C1C=C(CCCO)C2C(c2cccs2)N1Cc1cc2c(cc1Br)OCO2 (configuration not stated)
0.695

What about this compound? "COC(=O)Cn1c(C(=O)N2CCCC2)cc2c1C[C@H]1CN(C(=O)c3ccccc3)[C@@](Cc3ccc(F)cc3)(C(=O)OC)[C@@H]21"
0.63

Lookup O=C1OCC=C[C@H]2OC34C=CCN(Cn5nnc6ccccc65)C(=O)[C@H]3N(CCCCCCO)C(=O)[C@@H]4[C@@H]12 (some centres not stated)
0.447

How about this compound: COc1ccc(C(O)C2C=CC3C(=O)N(Cc4ccccc4)C(=O)C3N2n2cnnc2)c2ccccc12 (configuration not stated)
-1.34
